# System: methicillin resistant Staphylococcus aureus (MRSA) biofilm
# testContext: approximate peptide concentration […] (around 3 μg/ml); compared to untreated samples
Ends that are not written are not given here.
assayReadout: % Biofilm inhibition
In your response, the unit should come after the numeric value.

// worked examples, % Biofilm inhibition included
• 1002-L3: single substituted 1002 peptide (VQLWLIVWRIRK-NH2) [Peptide 1002-L3] = 59%
• 1018-A11: single substituted 1018 peptide (VRLIVAVRIWAR-NH2) [Peptide 1018-A11] = 59%
• 1002-W2: single substituted 1002 peptide (VWRWLIVWRIRK-NH2) [Peptide 1002-W2] = 61%

Req: Entry HH2-G9: single substituted HH2 peptide (VQLRIRVAGIRA-NH2) has what % Biofilm inhibition?
Resp: 59%

###

# Test system: methicillin resistant Staphylococcus aureus (MRSA) biofilm
# testContext: approximate peptide concentration […] (around 3 μg/ml); compared to untreated samples
Ends that are not written are not given here.
assayReadout: % Biofilm inhibition (%)
Answers are plain numbers, in %.

* HH2-V4: single substituted HH2 peptide (VQLVIRVAVIRA-NH2) | 60
* 1018-Q11: single substituted 1018 peptide (VRLIVAVRIWQR-NH2) [Peptide 1018-Q11] | 51
* 1002-G3: single substituted 1002 peptide (VQGWLIVWRIRK-NH2) [Peptide 1002-G3] | 56
* 1018-G7: single substituted 1018 peptide (VRLIVAGRIWRR-NH2) [Peptide 1018-G7] | 47
* HH2-R8: single substituted HH2 peptide (VQLRIRVRVIRA-NH2) | 71

Quick request: % Biofilm inhibition for each listed item, please.
1. 1018-V9: single substituted 1018 peptide (VRLIVAVRVWRR-NH2) [Peptide 1018-V9]
2. HH2-A2: single substituted HH2 peptide (VALRIRVAVIRA-NH2)
3. 1002-L4: single substituted 1002 peptide (VQRLLIVWRIRK-NH2) [Peptide 1002-L4]
4. 1002-W12: single substituted 1002 peptide (VQRWLIVWRIRW-NH2) [Peptide 1002-W12]
5. 1002-L12: single substituted 1002 peptide (VQRWLIVWRIRL-NH2) [Peptide 1002-L12]
6. 1018-G8: single substituted 1018 peptide (VRLIVAVGIWRR-NH2) [Peptide 1018-G8]

Resp:
1. 53
2. 69
3. 33
4. 71
5. 64
6. 54

###

# Tested on: LPS-stimulated human peripheral blood mononuclear cells (IL1-β)
# Type: cell-based
# testContext: Table 12; cells stimulated with 10 ng/ml LPS; LPS alone 1313 (HH2 derivatives), 1927 (1018 derivatives), 2455 (1002 and hybrid peptides) pg/ml
Ends that are not written are not given here.
Give IL1β Production for every item shown.
In your response, the unit should come after the numeric value.

• 1018-I6: single substituted 1018 peptide (VRLIVIVRIWRR-NH2) [Peptide 1018-I6] = 582 pg/mL

Quick request: IL1β Production for each listed item, please.
1. 1002-A6: single substituted 1002 peptide (VQRWLAVWRIRK-NH2) [Peptide 1002-A6]
2. 1002-G8: single substituted 1002 peptide (VQRWLIVGRIRK-NH2) [Peptide 1002-G8]
3. HH2-W7: single substituted HH2 peptide (VQLRIRWAVIRA-NH2)

Resp:
1. 382 pg/mL
2. 692 pg/mL
3. 1154 pg/mL

Quick request: IL1β Production for each listed item, please.
1. HH2-L2: single substituted HH2 peptide (VLLRIRVAVIRA-NH2)
2. 1002-Q8: single substituted 1002 peptide (VQRWLIVQRIRK-NH2) [Peptide 1002-Q8]
3. 1002-V12: single substituted 1002 peptide (VQRWLIVWRIRV-NH2) [Peptide 1002-V12]

Resp:
1. 1172 pg/mL
2. 1608 pg/mL
3. 127 pg/mL

Quick request: IL1β Production for each listed item, please.
1. 1002-A12: single substituted 1002 peptide (VQRWLIVWRIRA-NH2) [Peptide 1002-A12]
2. HH2-K4: single substituted HH2 peptide (VQLKIRVAVIRA-NH2)

Resp:
1. 127 pg/mL
2. 759 pg/mL

Quick request: IL1β Production for each listed item, please.
1. 1002-A1: single substituted 1002 peptide (AQRWLIVWRIRK-NH2) [Peptide 1002-A1]
2. HH2-G10: single substituted HH2 peptide (VQLRIRVAVGRA-NH2)
3. 1002-L10: single substituted 1002 peptide (VQRWLIVWRLRK-NH2) [Peptide 1002-L10]
4. 1018-Q9: single substituted 1018 peptide (VRLIVAVRQWRR-NH2) [Peptide 1018-Q9]
5. 1002-I9: single substituted 1002 peptide (VQRWLIVWIIRK-NH2) [Peptide 1002-I9]
6. HH2-W10: single substituted HH2 peptide (VQLRIRVAVWRA-NH2)

Resp:
["127 pg/mL", "1391 pg/mL", "127 pg/mL", "1313 pg/mL", "158 pg/mL", "1344 pg/mL"]

Quick request: IL1β Production for each listed item, please.
1. 1002-R1: single substituted 1002 peptide (RQRWLIVWRIRK-NH2) [Peptide 1002-R1]
2. 1018-V6: single substituted 1018 peptide (VRLIVVVRIWRR-NH2) [Peptide 1018-V6]

Resp:
127 pg/mL
226 pg/mL

###

# System: methicillin resistant Staphylococcus aureus (MRSA) biofilm
# testContext: approximate peptide concentration […] (around 3 μg/ml); compared to untreated samples
Ends that are not written are not given here.
assayReadout: % Biofilm inhibition (%)
Answers are plain numbers, in %.

// worked examples, % Biofilm inhibition included
• HH2-A10: single substituted HH2 peptide (VQLRIRVAVARA-NH2) = 53
• 1018-A8: single substituted 1018 peptide (VRLIVAVAIWRR-NH2) [Peptide 1018-A8] = 60
• 1002-G4: single substituted 1002 peptide (VQRGLIVWRIRK-NH2) [Peptide 1002-G4] = 42
• 1018-G3: single substituted 1018 peptide (VRGIVAVRIWRR-NH2) [Peptide 1018-G3] = 42
• 1018-V6: single substituted 1018 peptide (VRLIVVVRIWRR-NH2) [Peptide 1018-V6] = 70
• HH2-L6: single substituted HH2 peptide (VQLRILVAVIRA-NH2) = 18

Quick request: % Biofilm inhibition for each listed item, please.
1. HH2-K2: single substituted HH2 peptide (VKLRIRVAVIRA-NH2)
2. 1002-A1: single substituted 1002 peptide (AQRWLIVWRIRK-NH2) [Peptide 1002-A1]
3. 1002-W5: single substituted 1002 peptide (VQRWWIVWRIRK-NH2) [Peptide 1002-W5]
4. 1018-A4: single substituted 1018 peptide (VRLAVAVRIWRR-NH2) [Peptide 1018-A4]
5. 1018-G11: single substituted 1018 peptide (VRLIVAVRIWGR-NH2) [Peptide 1018-G11]
6. HH2-V10: single substituted HH2 peptide (VQLRIRVAVVRA-NH2)
7. 1002-G1: single substituted 1002 peptide (GQRWLIVWRIRK-NH2) [Peptide 1002-G1]

Resp:
[69, 55, 76, 38, 40, 68, 68]

Quick request: % Biofilm inhibition for each listed item, please.
1. HH2-R10: single substituted HH2 peptide (VQLRIRVAVRRA-NH2)
2. 1002-Q5: single substituted 1002 peptide (VQRWQIVWRIRK-NH2) [Peptide 1002-Q5]
3. HH2-V11: single substituted HH2 peptide (VQLRIRVAVIVA-NH2)
4. 1018-G12: single substituted 1018 peptide (VRLIVAVRIWRG-NH2) [Peptide 1018-G12]
5. HH2-A7: single substituted HH2 peptide (VQLRIRAAVIRA-NH2)
6. HH2-L4: single substituted HH2 peptide (VQLLIRVAVIRA-NH2)
7. 1018-K11: single substituted 1018 peptide (VRLIVAVRIWKR-NH2) [Peptide 1018-K11]

Resp:
[73, 48, 51, 53, 57, 54, 68]

###

# System: methicillin resistant Staphylococcus aureus (MRSA) biofilm
# testContext: approximate peptide concentration […] (around 3 μg/ml); compared to untreated samples
Ends that are not written are not given here.
Give % Biofilm inhibition for every item shown.
Numbers only, in %.

// worked examples, % Biofilm inhibition included
• 1002-K3: single substituted 1002 peptide (VQKWLIVWRIRK-NH2) [Peptide 1002-K3] = 61
• 1002-R10: single substituted 1002 peptide (VQRWLIVWRRRK-NH2) [Peptide 1002-R10] = 15
• 1002-W9: single substituted 1002 peptide (VQRWLIVWWIRK-NH2) [Peptide 1002-W9] = 73

Req: Entry HH2-I8: single substituted HH2 peptide (VQLRIRVIVIRA-NH2) has what % Biofilm inhibition?
Resp: 74

###

# System: methicillin resistant Staphylococcus aureus (MRSA) biofilm
# testContext: approximate peptide concentration […] (around 3 μg/ml); compared to untreated samples
Ends that are not written are not given here.
assayReadout: % Biofilm inhibition (%)
One number for each entry, in %.

// worked examples, % Biofilm inhibition included
* 1018-W9: single substituted 1018 peptide (VRLIVAVRWWRR-NH2) [Peptide 1018-W9] | 69
* HH2-W9: single substituted HH2 peptide (VQLRIRVAWIRA-NH2) | 75
* 1018-I2: single substituted 1018 peptide (VILIVAVRIWRR-NH2) [Peptide 1018-I2] | 61
* HH2-A3: single substituted HH2 peptide (VQARIRVAVIRA-NH2) | 52
* 1002-I2: single substituted 1002 peptide (VIRWLIVWRIRK-NH2) [Peptide 1002-I2] | 70
* HH2-I3: single substituted HH2 peptide (VQIRIRVAVIRA-NH2) | 62
* 1002-L7: single substituted 1002 peptide (VQRWLILWRIRK-NH2) [Peptide 1002-L7] | 57
* 1002-A9: single substituted 1002 peptide (VQRWLIVWAIRK-NH2) [Peptide 1002-A9] | 58

Quick request: % Biofilm inhibition for each listed item, please.
1. 1002-R2: single substituted 1002 peptide (VRRWLIVWRIRK-NH2) [Peptide 1002-R2]
2. 1018-A5: single substituted 1018 peptide (VRLIAAVRIWRR-NH2) [Peptide 1018-A5]

Resp:
1: 60; 2: 54
